Cited source: paper PMC10324562

target.or.test.system: HLA-E on the surface of Raji cells (Homo sapiens)
Construct: host or cells: Raji cells
assay.comment: HLA-E stabilisation assay (flow-cytometry)
Format: cell-based
test.settings: HLA-E*0101/0101 Raji cells transfected with peptide, HLA-E surface expression after 16h by flow-cytometry; three independent replicates; Figure 1E; read-out: HLA-E upregulation (EC50)
Ends that are not written are not given here.
measure.name: pEC50
The quantity pEC50 is defined as the negative base-10 logarithm of the molar concentration.

| sequence.text | measure.name | measurement |
| --- | --- | --- |
| GGDPHVPTL [GGDPHVPTL] | pEC50 | 3.12 |

Data request: Provide measured pEC50 value, entry: GTDPHLPTL [GTDPHLPTL]
Data returned: 3.78

Data request: Provide measured pEC50 value, entry: GIDPHLPTL [GIDPHLPTL]
Data returned: 3.50

* * *

We begin with a simple list: items and their reported pEC50.
target.or.test.system: HLA-E on the surface of Raji cells (Homo sapiens, UniProt P13747)
Construct: host or cells: Raji cells
assay.comment: HLA-E stabilisation assay (flow-cytometry)
Assay type: cell-based
test.settings: HLA-E*0101/0101 Raji cells transfected with peptide, HLA-E surface expression after 16h by flow-cytometry; three independent replicates; Figure 1E; read-out: HLA-E upregulation (EC50)
Ends that are not written are not given here.
The quantity pEC50 is defined as the negative base-10 logarithm of the molar concentration.

| sequence.text | pEC50 |
| --- | --- |
| GDDPHLPTL [GDDPHLPTL] | 3.43 |

Data request: Lab note: HLA-E on the surface of Raji cells (Homo sapiens, UniProt P13747) assay, enter pEC50 for GCDPHLPTL [GCDPHLPTL] here
Data returned: 3.52

Data request: Lab note: HLA-E on the surface of Raji cells (Homo sapiens, UniProt P13747) assay, enter pEC50 for GAGPHLPTL [GAGPHLPTL] here
Data returned: 3.50

Data request: Lab note: HLA-E on the surface of Raji cells (Homo sapiens, UniProt P13747) assay, enter pEC50 for GSDPHLPTL [GSDPHLPTL] here
Data returned: 3.21

Data request: Lab note: HLA-E on the surface of Raji cells (Homo sapiens, UniProt P13747) assay, enter pEC50 for GGDPPLPTL [GGDPPLPTL] here
Data returned: 3.81

Data request: Lab note: HLA-E on the surface of Raji cells (Homo sapiens, UniProt P13747) assay, enter pEC50 for GGDPHLPTL [GGDPHLPTL] here
Data returned: 3.79

Data request: Lab note: HLA-E on the surface of Raji cells (Homo sapiens, UniProt P13747) assay, enter pEC50 for GGDTPLPTL [GGDTPLPTL] here
Data returned: 2.95

Data request: Lab note: HLA-E on the surface of Raji cells (Homo sapiens, UniProt P13747) assay, enter pEC50 for GGDPHLPPL [GGDPHLPPL] here
Data returned: 3.17
